Target or test system: Nucleic Acid
Protocol: Compound was tested for binding to the bacterial decoding-site RNA target using an RNA fluorescence assay
pIC50: −log10 of the molar value.
Measured parameter: pIC50

Solved entries (count: 5):
GET /values?readout=pIC50&item= `NC[C@H]1O[C@H](O[C@@H]2C[C@@H](CO)NCC[C@H]2N)[C@H](N)[C@@H](O)[C@@H]1O`
4.10

Item under review: `CN1CC[C@H](N)[C@@H](O[C@H]2O[C@H](CN)[C@@H](O)[C@H](O)[C@H]2N)C[C@@H]1CO` . Reported pIC50?
< 3.60

// query pIC50 value for entry `NC[C@H]1O[C@H](O[C@H]2CCN[C@@H](CO)C[C@@H]2N)[C@H](N)[C@@H](O)[C@@H]1O`
< 3.60

Would you mind telling me what pIC50 value was observed for `N[C@H]1[C@@H](O[C@H]2C[C@H](CO)NCC[C@@H]2N)O[C@H](CO)[C@@H](O)[C@@H]1O` ?
< 3.60

I would be grateful if you could share the reported pIC50 for `NC[C@H]1O[C@H](O[C@H]2C[C@H](CO)NCC[C@@H]2N)[C@H](N)[C@@H](OCc2ccccc2)[C@@H]1OCc1ccccc1` .
< 3.60

Further cases:
Bench note: what pIC50 did `NC[C@H]1O[C@H](O[C@@H]2C[C@H](CO)NCC[C@H]2N)[C@H](N)[C@@H](O)[C@@H]1O` show?
4.92

What value of pIC50 has been reported for the following molecule? `NC[C@H]1C[C@H](O[C@H]2O[C@H](CN)[C@@H](O)[C@H](O)[C@H]2N)[C@@H](N)CCN1`
< 3.60

Name the reported pIC50 value associated with the molecule `NC[C@H]1O[C@H](O[C@@H]2CCN[C@H](CO)C[C@H]2N)[C@H](N)[C@@H](O)[C@@H]1O`
< 3.60

Reported pIC50 for `NC[C@H]1O[C@H](O[C@H]2C[C@H](CCl)NCC[C@@H]2N)[C@H](N)[C@@H](O)[C@@H]1O` : what is it?
< 3.60

Given `NC[C@H]1O[C@H](O[C@H]2C[C@@H]3COC(=O)N3CC[C@@H]2N)[C@H](N)[C@@H](O)[C@@H]1O` , state its recorded pIC50.
< 3.60

Find the recorded pIC50 belonging to `NC[C@H]1O[C@H](O[C@H]2C[C@H](CO)NCC[C@@H]2N)[C@H](N)[C@@H](O)[C@@H]1O` and report it.
4.96

Query: pIC50; subject: `NC[C@H]1O[C@H](O[C@H]2CCN[C@H](CO)C[C@@H]2N)[C@H](N)[C@@H](O)[C@@H]1O`
< 3.60

I'd like to know its pIC50. The molecule in question is `NC[C@H]1O[C@H](O[C@@H]2CCN[C@@H](CO)C[C@H]2N)[C@H](N)[C@@H](O)[C@@H]1O`
< 3.60

* * *

System: Staphylococcus aureus
Protocol: Compound was tested for bacterial translation inhibition (in vitro) using transcription-translation assay
Assay type: functional
Measured parameter: IC50 (µM)
Response body: numeric value in µM, unit text excluded.

Answered cases to consult:
Endpoint output: IC50 of `CN1CC[C@H](N)[C@@H](O[C@H]2O[C@H](CN)[C@@H](O)[C@H](O)[C@H]2N)C[C@@H]1CO` . Value?
75

What IC50 value was documented for this compound, `NC[C@H]1O[C@H](O[C@@H]2C[C@@H](CO)NCC[C@H]2N)[C@H](N)[C@@H](O)[C@@H]1O` ?
180

For the compound shown here, `NC[C@H]1O[C@H](O[C@H]2C[C@H](CO)NCC[C@@H]2N)[C@H](N)[C@@H](O)[C@@H]1O` , give the reported IC50.
5.7

Let us move to another entry and its IC50.
Could you tell me which IC50 is on file for `NC[C@H]1C[C@H](O[C@H]2O[C@H](CN)[C@@H](O)[C@H](O)[C@H]2N)[C@@H](N)CCN1` ?
170
